Each recorded value in this set is attributed to patent US20250339569A1.

- test.protocol: Biodistribution study (SPECT/CT) in SK-RC-52 tumor-bearing mice with or without gelofusine
- Type: in vivo, NMRI nude mice
- conditions.used: female, NMRI nude, mouse, in vivo, iv, total radioactivity, Liver uptake at 4 h p.i.
quantity: tissue uptake at 4 h

Exercise: tissue uptake at 4 h lookup needed for CC(C)C[C@@H]1NC(=O)[C@H](Cc2ccc(NC(=O)CCS(N)(=O)=O)cc2)NC(=O)[C@H](CC(=O)O)NC(=O)[C@H]2CCCN2C(=O)[C@H](CCC(=O)O)NC(=O)[C@@H](NC(=O)[C@H](CCC(N)=O)NC(=O)CN2CCN(CC(=O)O)CCN(CC(=O)O)CCN(CC(=O)O)CC2)CSCc2cccc(c2)CSC[C@@H](C(N)=O)NC(=O)[C@H](CO)NC(=O)[C@H](Cc2c[nH]c3ccccc23)NC(=O)[C@H]([C@@H](C)O)NC1=O , thanks.
Key: 0.08 %ID/g
